# credit: patent US8865741B2

- Test system: Male Sprague Dawley (SD) rats
- assay_remarks: In vivo assay of mechanical nociception (rat pinch model, perisciatic injection)
- applied_conditions: test compound 0.5%, lidocaine 2%, total injection 100 μL, perisciatic
# Average Time of Analgesia per entry
Only the number, expressed in h, is required.

Query: Write down the reported Average Time of Analgesia (system: Male Sprague Dawley (SD) rats) of CC[N+]1(CC)CCCCC1CCN(c1ccc(C)cc1)C1Cc2ccccc2C1.[I-] (stereo not drawn) [Example 23]
Reply: 2

Next:
Query: Under Male Sprague Dawley (SD) rats: report Average Time of Analgesia of CC[N+]1(CC)CCCCC1CCN(c1ccccc1F)C1Cc2ccccc2C1.[I-] (stereo not drawn) [Example 16] .
Reply: 6

Query: Retrieve Average Time of Analgesia on Male Sprague Dawley (SD) rats; query CC[N+](CC)(CC)CC(=O)Nc1c(C)cccc1C [QX-314, reference compound]
Reply: 6

Query: Write Average Time of Analgesia of CC[N+]1(CC)CCCC[C@H]1CCN(c1ccccc1)C1Cc2ccccc2C1.[I-] [Example 2] ; system used: Male Sprague Dawley (SD) rats
Reply: 10

Query: Retrieve Average Time of Analgesia on Male Sprague Dawley (SD) rats; query C[N+]1(C)CCCCC1CN(c1ccccc1)C1Cc2ccccc2C1.[I-] (stereo not drawn) [Example 3]
Reply: 12

Query: Recall the reported Average Time of Analgesia of C[N+]1(C)CCCCC1CCN(c1ccccc1F)C1Cc2ccccc2C1.[I-] (stereo not drawn) [Example 4] when tested on Male Sprague Dawley (SD) rats.
Reply: 1

Query: Give Average Time of Analgesia only, for CC[N+]1(CC)CCCC[C@@H]1CCN(c1ccccc1)C1Cc2ccccc2C1.[I-] [Example 11] , using Male Sprague Dawley (SD) rats data.
Reply: 7

Query: Give reported Average Time of Analgesia for Cc1ccccc1N(CCC1CCCC[N+]1(C)C)C1Cc2ccccc2C1.[I-] (stereo not drawn) [Example 24] (Male Sprague Dawley (SD) rats)
Reply: 32

Query: Jot down Average Time of Analgesia (Male Sprague Dawley (SD) rats) of C[N+]1(C)CCCC[C@H]1CCN(c1ccccc1)C1Cc2ccccc2C1.[I-] [Example 9] .
Reply: 5
